Measured values drawn from patent US11524966B1 for this set.

# TESTED_TARGET: USP25 (USP25-His6, Boston Biochem E-546) (Homo sapiens, UniProt Q9UHP3)
# Construct: His6; purchased Boston Biochem E-546
# ASSAY_OVERVIEW: Ubiquitin-Rhodamine 110 Assay for USP25 Activity, Example A-2
# Assay type: biochemical
# CONDITION_NOTES: Ubiquitin-Rhodamine 110 assay, Example A-2; read-out: USP25 A-2 IC50 range
pIC50: −log10 of the molar value.
REPORTED_METRIC: pIC50

Sample answers from the record:
COMPOUND: CCOC[C@H]1CN(c2ccc3c(c2)OC[C@H](NC(=O)c2sc4nc(C)ccc4c2N)C3)C[C@H]1N [Example 314]
TESTED_TARGET: USP25 (USP25-His6, Boston Biochem E-546) (Homo sapiens, UniProt Q9UHP3)
pIC50: 6.70 to 7.30
--
COMPOUND: Cc1ccc2c(N)c(C(=O)N[C@H]3COc4cc(N5CC6CCC[C@@]6(N)C5)ccc4C3)sc2n1 (stereo partly shown) [Example 248]
TESTED_TARGET: USP25 (USP25-His6, Boston Biochem E-546) (Homo sapiens, UniProt Q9UHP3)
pIC50: 5.70 to 6.70
--
COMPOUND: Cc1cccc2c(C(=O)N[C@H]3COc4cc(N5CCNCC5)ccc4C3)cnn12 [Example 458]
TESTED_TARGET: USP25 (USP25-His6, Boston Biochem E-546) (Homo sapiens, UniProt Q9UHP3)
pIC50: 5.70 to 6.70

*Q* Provide measured pIC50 value, entry: O=C(N[C@H]1COc2c(F)c(N3CC4CCC(C3)N4)cc(F)c2C1)c1cnc2c(c1)[C@@H]1C[C@@H]1CN2 [Example 89]
*A* 6.70 to 7.30

*Q* Provide measured pIC50 value, entry: CO[C@]1(C)CN(c2ccc3c(c2)OC[C@H](NC(=O)c2sc4nc(C)ccc4c2N)C3)C[C@H]1N [Example 282]
*A* 5.70 to 6.70

*Q* Provide measured pIC50 value, entry: CCO[C@H]1CN(c2ccc3c(n2)CC[C@H](NC(=O)c2sc4nc(C)ccc4c2N)C3)C[C@H]1N [Example 255]
*A* < 5.70

*Q* Provide measured pIC50 value, entry: COC[C@@H]1CN(c2nc3c(cc2F)C[C@H](NC(=O)c2sc4nc(C)ccc4c2N)CC3)C[C@@H]1N (single isomer, unassigned) [Example 302]
*A* 5.70 to 6.70

---

Measured IC50 of individual entries
# TESTED_TARGET: USP25 (USP25-His6, Boston Biochem E-546) (Homo sapiens, UniProt Q9UHP3)
# Construct: His6; purchased Boston Biochem E-546
# Sequence (Q9UHP3 1-1055): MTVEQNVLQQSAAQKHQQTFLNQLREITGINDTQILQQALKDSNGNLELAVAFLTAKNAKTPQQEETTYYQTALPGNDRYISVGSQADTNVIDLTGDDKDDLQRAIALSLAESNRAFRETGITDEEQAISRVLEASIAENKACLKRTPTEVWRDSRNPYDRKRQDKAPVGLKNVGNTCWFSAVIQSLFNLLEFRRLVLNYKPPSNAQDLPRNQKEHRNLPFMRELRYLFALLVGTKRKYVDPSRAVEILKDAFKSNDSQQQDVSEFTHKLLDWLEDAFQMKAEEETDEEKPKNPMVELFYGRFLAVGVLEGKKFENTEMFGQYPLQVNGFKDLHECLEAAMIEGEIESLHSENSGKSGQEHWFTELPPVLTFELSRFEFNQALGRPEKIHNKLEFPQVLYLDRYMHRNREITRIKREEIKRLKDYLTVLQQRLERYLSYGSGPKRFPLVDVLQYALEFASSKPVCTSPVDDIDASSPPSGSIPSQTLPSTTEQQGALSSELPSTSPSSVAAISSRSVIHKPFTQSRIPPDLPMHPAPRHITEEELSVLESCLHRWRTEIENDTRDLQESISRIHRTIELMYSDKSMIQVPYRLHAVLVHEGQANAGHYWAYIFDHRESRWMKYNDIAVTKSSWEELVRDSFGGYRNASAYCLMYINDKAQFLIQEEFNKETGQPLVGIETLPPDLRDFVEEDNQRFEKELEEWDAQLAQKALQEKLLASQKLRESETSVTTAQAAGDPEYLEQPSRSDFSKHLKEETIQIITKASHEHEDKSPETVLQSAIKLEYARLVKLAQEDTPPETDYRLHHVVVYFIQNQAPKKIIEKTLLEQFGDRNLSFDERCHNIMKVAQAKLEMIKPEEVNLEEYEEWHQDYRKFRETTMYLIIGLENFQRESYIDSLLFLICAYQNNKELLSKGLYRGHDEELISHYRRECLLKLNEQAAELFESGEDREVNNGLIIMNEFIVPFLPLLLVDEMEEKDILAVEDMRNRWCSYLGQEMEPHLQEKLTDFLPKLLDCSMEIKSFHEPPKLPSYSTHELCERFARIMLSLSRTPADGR
# ASSAY_OVERVIEW: Ubiquitin-Rhodamine 110 Assay for USP25 Activity, Example A-2
# Format: biochemical
# CONDITION_NOTES: Ubiquitin-Rhodamine 110 assay, Example A-2; read-out: USP25 A-2 IC50 range

Sample answers from the record:
MOLECULE: Cc1ccc2c(N)c(C(=O)N[C@H]3COc4cc(C5CC6COCC(C5)N6)ccc4C3)sc2n1 (stereo partly shown) [Example 125]
ASSAY_RESULT: 50 to 200 nM
//
MOLECULE: CCO[C@H]1CN(c2ccc3c(c2)OC[C@H](NC(=O)c2sc4nc(C)ccc4c2N)C3)C[C@@H]1N [Example 115]
ASSAY_RESULT: 200 to 2000 nM

*Q* Provide measured IC50 value, entry: Cc1nc2sc(C(=O)N[C@H]3COc4cc(N5CCNCC5)c(F)c(F)c4C3)c(N)c2s1 [Example 66]
*A* 200 to 2000 nM

*Q* Provide measured IC50 value, entry: Cc1cc(C)c2c(N)c(C(=O)N[C@H]3CCc4nc(N5CC[C@@H]6CNC[C@@H]65)ccc4C3)sc2n1 [Example 219]
*A* 50 to 200 nM

---

# TESTED_TARGET: USP25 (USP25-His6, Boston Biochem E-546) (Homo sapiens)
# Construct: His6; purchased Boston Biochem E-546
# Sequence (Q9UHP3 1-1055): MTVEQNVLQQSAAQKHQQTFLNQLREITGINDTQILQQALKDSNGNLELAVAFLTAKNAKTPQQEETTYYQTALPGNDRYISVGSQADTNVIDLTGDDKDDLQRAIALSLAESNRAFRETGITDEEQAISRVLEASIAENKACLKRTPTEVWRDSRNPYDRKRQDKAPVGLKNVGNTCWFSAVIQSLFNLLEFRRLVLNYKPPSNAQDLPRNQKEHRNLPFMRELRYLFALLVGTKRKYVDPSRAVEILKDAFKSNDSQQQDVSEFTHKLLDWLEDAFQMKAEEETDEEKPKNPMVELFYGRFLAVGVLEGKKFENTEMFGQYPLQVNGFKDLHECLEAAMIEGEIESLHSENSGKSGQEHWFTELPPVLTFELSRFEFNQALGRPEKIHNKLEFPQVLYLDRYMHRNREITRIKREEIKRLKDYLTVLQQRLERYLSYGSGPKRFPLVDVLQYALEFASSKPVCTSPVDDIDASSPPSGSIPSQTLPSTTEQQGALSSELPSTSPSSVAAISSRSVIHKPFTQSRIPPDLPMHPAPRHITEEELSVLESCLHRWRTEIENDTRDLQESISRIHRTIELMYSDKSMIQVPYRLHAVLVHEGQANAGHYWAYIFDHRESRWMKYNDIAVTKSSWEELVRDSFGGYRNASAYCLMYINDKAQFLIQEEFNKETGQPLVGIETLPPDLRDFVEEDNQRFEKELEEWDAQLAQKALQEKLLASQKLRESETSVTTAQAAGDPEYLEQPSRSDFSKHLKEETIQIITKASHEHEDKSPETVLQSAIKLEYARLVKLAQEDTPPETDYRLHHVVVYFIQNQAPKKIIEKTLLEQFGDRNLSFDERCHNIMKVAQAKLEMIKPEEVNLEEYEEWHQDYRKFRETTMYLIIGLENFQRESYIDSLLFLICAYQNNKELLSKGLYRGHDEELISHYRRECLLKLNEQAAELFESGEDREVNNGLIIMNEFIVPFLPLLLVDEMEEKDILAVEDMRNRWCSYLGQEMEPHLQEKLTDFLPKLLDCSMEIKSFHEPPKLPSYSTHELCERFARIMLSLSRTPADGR
# ASSAY_OVERVIEW: Ubiquitin-Rhodamine 110 Assay for USP25 Activity, Example A-2
# Type: biochemical
# CONDITION_NOTES: Ubiquitin-Rhodamine 110 assay, Example A-2; read-out: USP25 A-2 IC50 range
pIC50: −log10 of the molar value.
REPORTED_METRIC: pIC50

Sample answers from the record:
COMPOUND: Cc1ccc2c(N)c(C(=O)N[C@H]3COc4cc(N5C[C@H](OC6CC6)[C@@H](N)C5)ccc4C3)sc2n1
pIC50: 5.70 to 6.70

COMPOUND: Cc1ccc2c(N)c(C(=O)N[C@H]3COc4cc(N5C[C@H](C(F)F)[C@@H](N)C5)ccc4C3)sc2n1
pIC50: 6.70 to 7.30

COMPOUND: Cc1ccc2c(N)c(C(=O)N[C@H]3COc4cc(N5CC[C@H]6CC[C@@H](N)C[C@H]65)ccc4C3)sc2n1
pIC50: 7.30 to 9.00

COMPOUND: Cc1ccc2c(N)c(C(=O)N[C@H]3COc4c(F)c(N5C[C@@H]6C[C@H]5CN6)cc(F)c4C3)sc2n1
pIC50: 6.70 to 7.30

COMPOUND: Cc1ccc2c(N)c(C(=O)N[C@H]3COc4cc(N5CC6CCC[C@]6(N)C5)ccc4C3)sc2n1 (stereo partly shown)
pIC50: 6.70 to 7.30

*Q* Provide measured pIC50 value, entry: CN[C@H]1CN(c2ccc3c(n2)CC[C@H](NC(=O)c2sc4nc(C)ccc4c2N)C3)C[C@@H]1OC
*A* < 5.70

*Q* Provide measured pIC50 value, entry: Cc1nc2sc(C(=O)N[C@H]3COc4c(F)c(N5CCNCC5)cc(F)c4C3)c(N)c2s1
*A* 5.70 to 6.70
